Reported viability, T/C values for a set of compounds
Tested on: 945468-187-T-J2-PDC spheroids viability
Test: Anticancer human tumor 945468-187-T-J2-PDC patient-derived rectal carcinoma cell line growth inhibition [PI3K]
Conditions: second compound 0.0316 µM; first compound 10 µM; active compounds read low; spheroids with HUVEC and MSC

# COMPOUND, TARGET UNDER TEST, viability, T/C [%]
measured = [
    ("CC(C)NCC(C(=O)N1CCN(c2ncnc3c2C(C)CC3O)CC1)c1ccc(Cl)cc1 (stereo not given) + CC(Nc1ccc2c(c1)OCCn1cc(N3C(=O)OCC3C(F)F)nc1-2)C(N)=O", "945468-187-T-J2-PDC spheroids viability", 92.9),
    ("CNC(=O)c1ccc(N2C(=S)N(c3ccc(C#N)c(C(F)(F)F)c3)C(=O)C2(C)C)cc1F + COc1c(OCCCN2CCOCC2)ccc2c3n(c(=NC(=O)c4cnc(N)nc4)nc12)CCN3", "945468-187-T-J2-PDC spheroids viability", 109),
    ("CC(Cn1ccc(-c2ccc(C#N)c(Cl)c2)n1)NC(=O)c1cc(C(C)O)[nH]n1 (stereo not given) + CC(Nc1ncnc2nc[nH]c12)c1cc2cccc(Cl)c2c(=O)n1-c1ccccc1", "945468-187-T-J2-PDC spheroids viability", 89.3),
    ("C#Cc1c(F)ccc2cc(O)cc(-c3ncc4c(N5CC6CCC(C5)N6)nc(OCC56CCCN5CC(F)C6)nc4c3F)c12 (stereo not given) + CC(Nc1ccc2c(c1)OCCn1cc(N3C(=O)OCC3C(F)F)nc1-2)C(N)=O", "945468-187-T-J2-PDC spheroids viability", 103),
    ("Cn1ncc(Cl)c1-c1cc(C(=O)NC(CN)Cc2cccc(F)c2)sc1Cl (stereo not given) + Cc1nc(NC(=O)N2CCCC2C(N)=O)sc1-c1ccnc(C(C)(C)C(F)(F)F)c1", "945468-187-T-J2-PDC spheroids viability", 71.6),
]

----------
Reported viability, T/C values for the following molecules.
Test system: 945468-187-T-J2-PDC spheroids viability
Experiment: Anticancer human tumor 945468-187-T-J2-PDC cell line growth inhibition [PI3K];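 further: spheroids exposed to compounds for seven days before reading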
Conditions: second compound 0.1 µM; first compound 0.1 µM; active compounds read low; spheroids with HUVEC and MSC
READOUT LABEL: viability, T/C

# MOLECULE, MEASUREMENT
measured = [
    ("CCCS(=O)(=O)Nc1ccc(F)c(C(=O)c2c[nH]c3ncc(-c4ccc(Cl)cc4)cc23)c1F + COc1c(OCCCN2CCOCC2)ccc2c3n(c(=NC(=O)c4cnc(N)nc4)nc12)CCN3", "90.5%"),
    ("CC(=O)c1c(C)c2cnc(Nc3ccc(N4CCNCC4)cn3)nc2n(C2CCCC2)c1=O + Cc1nc(NC(=O)N2CCCC2C(N)=O)sc1-c1ccnc(C(C)(C)C(F)(F)F)c1", "103%"),
    ("C[C@@H](NC(=O)c1ncnc(N)c1Cl)c1ncc(C(=O)Nc2cc(C(F)(F)F)c(Cl)cn2)s1 + COc1c(OCCCN2CCOCC2)ccc2c3n(c(=NC(=O)c4cnc(N)nc4)nc12)CCN3", "102%"),
    ("C#Cc1c(F)ccc2cc(O)cc(-c3ncc4c(N5CC6CCC(C5)N6)nc(OCC56CCCN5CC(F)C6)nc4c3F)c12 (stereo unspecified) + Cc1nc(NC(=O)N2CCCC2C(N)=O)sc1-c1ccnc(C(C)(C)C(F)(F)F)c1", "114%"),
    ("CC(C)NCC(C(=O)N1CCN(c2ncnc3c2C(C)CC3O)CC1)c1ccc(Cl)cc1 (stereo unspecified) + COc1c(OCCCN2CCOCC2)ccc2c3n(c(=NC(=O)c4cnc(N)nc4)nc12)CCN3", "106%"),
    ("Cn1ncnc1[C@H]1c2n[nH]c(=O)c3cc(F)cc(c23)N[C@@H]1c1ccc(F)cc1 + CC(Nc1ccc2c(c1)OCCn1cc(N3C(=O)OCC3C(F)F)nc1-2)C(N)=O", "102%"),
    ("CC(C)n1nc(-c2ccc3oc(N)nc3c2)c2c(N)ncnc21 + CC(Nc1ncnc2nc[nH]c12)c1cc2cccc(Cl)c2c(=O)n1-c1ccccc1", "73.5%"),
    ("CC1(C)CCC(CN2CCN(c3ccc(C(=O)NS(=O)(=O)c4ccc(NCC5CCOCC5)c([N+](=O)[O-])c4)c(Oc4cnc5[nH]ccc5c4)c3)CC2)=C(c2ccc(Cl)cc2)C1 + Cc1nc(NC(=O)N2CCCC2C(N)=O)sc1-c1ccnc(C(C)(C)C(F)(F)F)c1", "97.5%"),
    ("CC1(C)CCC(Nc2ncc(C(F)(F)F)c(-c3c[nH]c4c(P(C)(C)=O)c(C#N)ccc34)n2)CN1 (stereo unspecified) + CC(Nc1ncnc2nc[nH]c12)c1cc2cccc(Cl)c2c(=O)n1-c1ccccc1", "92.4%"),
    ("CCCS(=O)(=O)Nc1ccc(F)c(C(=O)c2c[nH]c3ncc(-c4ccc(Cl)cc4)cc23)c1F + Cc1nc(NC(=O)N2CCCC2C(N)=O)sc1-c1ccnc(C(C)(C)C(F)(F)F)c1", "66.7%"),
    ("Cn1ncnc1[C@H]1c2n[nH]c(=O)c3cc(F)cc(c23)N[C@@H]1c1ccc(F)cc1 + CC(Nc1ncnc2nc[nH]c12)c1cc2cccc(Cl)c2c(=O)n1-c1ccccc1", "109%"),
    ("C#Cc1c(F)ccc2cc(O)cc(-c3ncc4c(N5CC6CCC(C5)N6)nc(OCC56CCCN5CC(F)C6)nc4c3F)c12 (stereo unspecified) + CC(Nc1ccc2c(c1)OCCn1cc(N3C(=O)OCC3C(F)F)nc1-2)C(N)=O", "81.2%"),
    ("CCCS(=O)(=O)Nc1ccc(F)c(C(=O)c2c[nH]c3ncc(-c4ccc(Cl)cc4)cc23)c1F + CC(Nc1ccc2c(c1)OCCn1cc(N3C(=O)OCC3C(F)F)nc1-2)C(N)=O", "109%"),
    ("CNC(=O)c1ccc(N2C(=S)N(c3ccc(C#N)c(C(F)(F)F)c3)C(=O)C2(C)C)cc1F + CC(Nc1ccc2c(c1)OCCn1cc(N3C(=O)OCC3C(F)F)nc1-2)C(N)=O", "124%"),
    ("CCN1CCN(Cc2ccc(Nc3ncc(F)c(-c4cc(F)c5nc(C)n(C(C)C)c5c4)n3)nc2)CC1 + CC(Nc1ccc2c(c1)OCCn1cc(N3C(=O)OCC3C(F)F)nc1-2)C(N)=O", "79.3%"),
    ("Cn1nccc1Nc1nccc(-c2ccn(C(CO)c3ccc(Cl)c(F)c3)c(=O)c2)n1 (stereo unspecified) + COc1c(OCCCN2CCOCC2)ccc2c3n(c(=NC(=O)c4cnc(N)nc4)nc12)CCN3", "75.9%"),
    ("CC(C)NCC(C(=O)N1CCN(c2ncnc3c2C(C)CC3O)CC1)c1ccc(Cl)cc1 (stereo unspecified) + CC(Nc1ncnc2nc[nH]c12)c1cc2cccc(Cl)c2c(=O)n1-c1ccccc1", "93.1%"),
    ("CNC(=O)c1ccc(N2C(=S)N(c3ccc(C#N)c(C(F)(F)F)c3)C(=O)C2(C)C)cc1F + CC(Nc1ncnc2nc[nH]c12)c1cc2cccc(Cl)c2c(=O)n1-c1ccccc1", "92.5%"),
    ("C[C@@H](NC(=O)c1ncnc(N)c1Cl)c1ncc(C(=O)Nc2cc(C(F)(F)F)c(Cl)cn2)s1 + Cc1nc(NC(=O)N2CCCC2C(N)=O)sc1-c1ccnc(C(C)(C)C(F)(F)F)c1", "80.3%"),
    ("Cn1nccc1Nc1nccc(-c2ccn(C(CO)c3ccc(Cl)c(F)c3)c(=O)c2)n1 (stereo unspecified) + Cc1nc(NC(=O)N2CCCC2C(N)=O)sc1-c1ccnc(C(C)(C)C(F)(F)F)c1", "110%"),
    ("CC(C)NCC(C(=O)N1CCN(c2ncnc3c2C(C)CC3O)CC1)c1ccc(Cl)cc1 (stereo unspecified) + CC(Nc1ccc2c(c1)OCCn1cc(N3C(=O)OCC3C(F)F)nc1-2)C(N)=O", "77.1%"),
]
